# Inhibition at 100 μM per entry
tested on: Botrytis cinerea (B05.10); assay: Resazurin antifungal assay of 180 alpha-factor peptide variants towards Botrytis (Example 2); assay type: cell-based; conditions: % inhibition of fungal growth, Botrytis conidia, peptide 100 μM, resazurin
Peptide text beside a SMILES is read from it.

CSCC[C@H](NC(=O)[C@H](Cc1c[nH]cn1)NC(=O)[C@@H](N)Cc1c[nH]c2ccccc12)C(=O)N[C@H](C(=O)N[C@@H](CCC(N)=O)C(=O)N[C@@H](CC(C)C)C(=O)N[C@@H](CCCCN)C(=O)N1CCC[C@H]1C(=O)NCC(=O)N[C@@H](CCC(=O)O)C(=O)N1CCC[C@H]1C(=O)N[C@@H](CCSC)C(=O)N[C@@H](Cc1ccc(O)cc1)C(=O)O)C(C)C [compound 163] (H-WHMVQLKPGEPMY-OH; N-terminus and C-terminus assumed) ... <90%
CSCC[C@H](NC(=O)[C@@H]1CCCN1C(=O)[C@H](CCC(N)=O)NC(=O)CNC(=O)[C@@H]1CCCN1C(=O)[C@H](CCCCN)NC(=O)[C@H](CC(C)C)NC(=O)[C@H](CCC(=O)O)NC(=O)CNC(=O)[C@H](Cc1c[nH]c2ccccc12)NC(=O)[C@H](Cc1c[nH]cn1)NC(=O)[C@@H]1CCCN1)C(=O)N[C@@H](Cc1ccc(O)cc1)C(=O)O [compound 143] (H-PHWGELKPGQPMY-OH; N-terminus and C-terminus assumed) ... <90%
CSCC[C@H](NC(=O)[C@@H]1CCCN1C(=O)[C@H](CO)NC(=O)CNC(=O)[C@@H]1CCCN1C(=O)[C@H](CCCCN)NC(=O)[C@H](CC(C)C)NC(=O)[C@H](C)NC(=O)[C@H](CC(C)C)NC(=O)[C@@H](NC(=O)[C@H](Cc1c[nH]cn1)NC(=O)[C@@H](N)CCCCN)C(C)C)C(=O)N[C@@H](Cc1ccc(O)cc1)C(=O)O [compound 154] (H-KHVLALKPGSPMY-OH; N-terminus and C-terminus assumed) ... <90%
CC[C@H](C)[C@H](NC(=O)[C@H](CCC(=O)O)NC(=O)CNC(=O)[C@H](Cc1c[nH]c2ccccc12)NC(=O)[C@H](Cc1c[nH]cn1)NC(=O)[C@@H]1CCCN1)C(=O)N[C@@H](CCCCN)C(=O)N1CCC[C@H]1C(=O)NCC(=O)N[C@@H](CCC(N)=O)C(=O)N[C@@H](CO)C(=O)N[C@@H](CCSC)C(=O)N[C@@H](Cc1ccc(O)cc1)C(=O)O [compound 139] (H-PHWGEIKPGQSMY-OH; N-terminus and C-terminus assumed) ... <90%

# input compound: CC[C@H](C)[C@H](NC(=O)CNC(=O)[C@@H](N)CCCCN)C(=O)N[C@@H](CC(C)C)C(=O)N[C@H](C(=O)N[C@@H](CC(C)C)C(=O)N[C@@H](CCCCN)C(=O)N1CCC[C@H]1C(=O)NCC(=O)N[C@@H](CCC(N)=O)C(=O)N1CCC[C@H]1C(=O)N[C@@H](CCSC)C(=O)N[C@@H](Cc1ccc(O)cc1)C(=O)O)[C@@H](C)O [compound 153] (H-KGILTLKPGQPMY-OH; N-terminus and C-terminus assumed) ; wanted: its Inhibition at 100 μM
<90%

###

tested on: Botrytis cinerea (B05.10); assay: Resazurin antifungal assay of 180 alpha-factor peptide variants towards Botrytis (Example 2); assay type: cell-based; conditions: % inhibition of fungal growth, Botrytis conidia, peptide 20 μM, resazurin
Peptide text beside a SMILES is read from it.
endpoint_name: Inhibition at 20 μM

Check out these entries, answers already filled in.
CSCC[C@H](NC(=O)[C@@H]1CCCN1C(=O)[C@H](CO)NC(=O)CNC(=O)[C@@H]1CCCN1C(=O)CNC(=O)[C@H](Cc1ccccc1)NC(=O)[C@H](CCC(N)=O)NC(=O)[C@@H](NC(=O)[C@H](Cc1c[nH]c2ccccc12)NC(=O)[C@H](Cc1c[nH]cn1)NC(=O)[C@@H](N)Cc1c[nH]c2ccccc12)C(C)C)C(=O)N[C@@H](Cc1ccc(O)cc1)C(=O)O [compound 111] (H-WHWVQFGPGSPMY-OH; N-terminus and C-terminus assumed) ... <90%
CSCC[C@H](NC(=O)[C@@H]1CCCN1C(=O)[C@H](CCC(N)=O)NC(=O)CNC(=O)[C@@H]1CCCN1C(=O)[C@H](CCCCN)NC(=O)[C@H](CC(C)C)NC(=O)[C@H](C)NC(=O)[C@H](CC(C)C)NC(=O)[C@H](Cc1ccc(O)cc1)NC(=O)[C@H](Cc1c[nH]cn1)NC(=O)[C@@H](N)CCCCN)C(=O)N[C@@H](Cc1ccc(O)cc1)C(=O)O [compound 103] (H-KHYLALKPGQPMY-OH; N-terminus and C-terminus assumed) ... <90%

Record lookup: for Botrytis cinerea (B05.10), what Inhibition at 20 μM belongs to CSCC[C@H](NC(=O)[C@@H]1CCCN1C(=O)[C@H](CCC(N)=O)NC(=O)CNC(=O)[C@@H]1CCCN1C(=O)[C@H](CCCCN)NC(=O)[C@H](CC(C)C)NC(=O)[C@@H](NC(=O)[C@H](CC(C)C)NC(=O)[C@H](Cc1ccccc1)NC(=O)[C@H](Cc1c[nH]cn1)NC(=O)[C@@H](N)CCCCN)[C@@H](C)O)C(=O)N[C@@H](Cc1ccc(O)cc1)C(=O)O [compound 96] (H-KHFLTLKPGQPMY-OH; N-terminus and C-terminus assumed) ?
<90%

###

# Inhibition at 100 μM per entry
system: Botrytis cinerea (B05.10); assay: Resazurin antifungal assay of 180 alpha-factor peptide variants towards Botrytis (Example 2); assay type: cell-based; settings: % inhibition of fungal growth, Botrytis conidia, peptide 100 μM, resazurin
Peptide text beside a SMILES is read from it.

Check out these entries, answers already filled in.
CSCC[C@H](NC(=O)[C@@H]1CCCN1C(=O)[C@H](CCC(N)=O)NC(=O)CNC(=O)[C@@H]1CCCN1C(=O)[C@H](CCCCN)NC(=O)[C@H](CC(C)C)NC(=O)[C@H](CCC(=O)O)NC(=O)[C@H](CC(C)C)NC(=O)[C@H](Cc1ccc(O)cc1)NC(=O)[C@H](Cc1c[nH]cn1)NC(=O)[C@@H](N)CCCCN)C(=O)N[C@@H](Cc1ccc(O)cc1)C(=O)O [compound 162] (H-KHYLELKPGQPMY-OH; N-terminus and C-terminus assumed) ... <90%
CSCC[C@H](NC(=O)[C@H](CO)NC(=O)[C@H](CCC(N)=O)NC(=O)CNC(=O)[C@@H]1CCCN1C(=O)[C@H](CCCCN)NC(=O)[C@H](Cc1ccccc1)NC(=O)[C@H](CC(N)=O)NC(=O)[C@H](CC(C)C)NC(=O)[C@H](CO)NC(=O)[C@H](CCCCN)NC(=O)[C@@H](N)Cc1c[nH]c2ccccc12)C(=O)N[C@@H](Cc1ccc(O)cc1)C(=O)O [compound 159] (H-WKSLNFKPGQSMY-OH; N-terminus and C-terminus assumed) ... <90%

Consider now this further molecule.
# input molecule: CC[C@H](C)[C@H](NC(=O)[C@H](Cc1c[nH]c2ccccc12)NC(=O)[C@H](Cc1c[nH]cn1)NC(=O)[C@@H]1CCCN1)C(=O)N[C@@H](CCC(N)=O)C(=O)N[C@@H](CC(C)C)C(=O)N[C@@H](Cc1ccccc1)C(=O)N[C@@H](CC(N)=O)C(=O)NCC(=O)N[C@@H](CCC(N)=O)C(=O)N1CCC[C@H]1C(=O)N[C@@H](CCSC)C(=O)N[C@@H](Cc1ccc(O)cc1)C(=O)O [compound 37] (H-PHWIQLFNGQPMY-OH; N-terminus and C-terminus assumed) ; wanted: its Inhibition at 100 μM
<90%

###

tested on: Botrytis cinerea (B05.10); assay: Resazurin antifungal assay of 180 alpha-factor peptide variants towards Botrytis (Example 2); format: cell-based; conditions: % inhibition of fungal growth, Botrytis conidia, peptide 20 μM, resazurin
Peptide text beside a SMILES is read from it.
# Inhibition at 20 μM per entry
Give the quantity in %, number only.

CSCC[C@H](NC(=O)[C@@H]1CCCN1C(=O)[C@H](CCC(N)=O)NC(=O)CNC(=O)[C@@H]1CCCN1C(=O)[C@H](CCCCN)NC(=O)[C@H](Cc1ccccc1)NC(=O)[C@H](CCCCN)NC(=O)[C@H](CC(C)C)NC(=O)[C@H](Cc1c[nH]c2ccccc12)NC(=O)[C@H](Cc1c[nH]cn1)NC(=O)[C@@H](N)CCCCN)C(=O)N[C@@H](Cc1ccc(O)cc1)C(=O)O [compound 13] (H-KHWLKFKPGQPMY-OH; N-terminus and C-terminus assumed) ... 100

Consider now this further compound.
# input compound: CC[C@H](C)[C@H](NC(=O)[C@H](CCCCN)NC(=O)[C@H](CC(C)C)NC(=O)[C@H](Cc1ccccc1)NC(=O)[C@H](Cc1c[nH]cn1)NC(=O)[C@@H](N)CCCCN)C(=O)N[C@@H](CCCCN)C(=O)N1CCC[C@H]1C(=O)NCC(=O)N[C@@H](CCC(N)=O)C(=O)N1CCC[C@H]1C(=O)N[C@@H](CCSC)C(=O)N[C@@H](Cc1ccc(O)cc1)C(=O)O [compound 86] (H-KHFLKIKPGQPMY-OH; N-terminus and C-terminus assumed) ; wanted: its Inhibition at 20 μM
99.49
